- assay-info: AP1 Signaling Pathway (AID 357);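 also: ME-180 reporter cells stimulated with EGF at its EC50 level; % is scaled to controls: 0 for no effect and ±100 for the full control effect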
- cond: ME-180 (cervical carcinoma) AP-1-bla reporter, EGF-induced, beta-lactamase ratio, 5 h; at 17.2 µM (top of the series) unless noted
- Protocol: NCGC Assay Overview: Activator protein-1 (AP-1), a transcription factor, plays an important role in tumor genesis by regulating genes involved in cell proliferation, differentiation, apoptosis, and angiogenesis. AP-1 activity is induced by a complex network of signaling pathways that involves extracellular signals, such as growth factors. […] Library compounds were measured for their ability to modulate positively or negatively the action of EC50 EGF on reporter gene activity. […]
Inconclusive results are not listed. Calls of active or inactive are those of the source. Calls follow the shape of the dose curve; as a rule, active = well fitted curve in either direction with a large enough effect (not every such curve was filed as active); inconclusive = small, poorly fitted or top-dose-only effect, or another doubt; inactive = flat fitted curve, though single readings scatter.
activity change, negative = inhibition overview

compound	activity change, negative = inhibition
CCCCn1c(-c2ccc(Cl)cc2)nc2c(=O)n(C)c(=O)[nH]c21	22.6% (inactive)
N#C/C(=C\c1c(N2CCC(C(N)=O)CC2)nc2ccccn2c1=O)S(=O)(=O)c1ccccc1	-8.19% (inactive)
Fc1ccc(C2C3=C(Nc4ncnn42)c2ccccc2OC3c2ccncc2)cc1 (stereo unspecified)	-29% (inactive)
CN/C(=C/[N+](=O)[O-])NCCSCc1ccc(CN(C)C)o1	-15.4% (inactive)
CCOC(=O)c1c(CN2CCCCC2)oc2ccc(OC)cc12	21.2% (inactive)
Cc1nn2cnc3sc4c(c3c2nc1=O)CCCC4	10.1% (inactive)
COc1ccc(C2/C(=C(/O)c3ccccc3)C(=O)C(=O)N2c2ncccn2)cc1OC (stereo unspecified)	-3.2% (inactive)
Cc1cc(C)n(C(=O)CNC(=O)CCc2ccccc2)n1	8.64% (inactive)
CCc1c(C(=O)O)[nH]c2ccc(Br)cc12	8.39% (inactive)
COc1ccccc1C1(CC(=O)N2CCOCC2)CCOC(C(C)C)C1 (stereo unspecified)	3.63% (inactive)
CSc1nc2sc3c(c2c2nnnn12)CCCC3	19.7% (inactive)
